Taken from patent US11008311B2.

Below: a set of entries, each annotated with reported solubility thermodynamic at 24 h.
experiment: Determination of equilibrium solubility; type: physicochemical; conditions: 37 °C, aqueous buffer, thermodynamic from solid; pH 6.8 (phosphate buffer); 37±2° C., 24 h; based on azilsartan
value-kind: solubility thermodynamic at 24 h (mg/mL)

compound	unit-text	readout-number
CCOc1nc2cccc(C(=O)OC(C)OC(=O)OCc3nc(C)c(C)nc3C)c2n1Cc1ccc(-c2ccccc2-c2noc(=O)[n-]2)cc1.[K+] (centres unmarked) [QR01019K]	mg/mL	0.0259
CCOc1nc2cccc(C(=O)OC(C)OC(=O)OCc3nc(C)c(C)nc3C)c2n1Cc1ccc(-c2ccccc2-c2noc(=O)[nH]2)cc1 (centres unmarked) [QR01019, reference compound]	mg/mL	0.0016
